Across several studies, compounds have been characterized by their Ki on rat orexin 1 receptor (Rattus norvegicus); a selection follows.
assay-metric: Ki (nM)

> print(dat)
                                    compound  assay.metric  units.symbol  value.measured
 1  O=C(c1cc(F)ccc1-c1ncccn1)N1[C@H](CF)[C@@H]2CC[C@H]1[C@H](Oc1ccc(C(F)(F)F)cn1)C2            Ki            nM              36
 2  Cc1ccc(-n2nccn2)c(C(=O)N2C[C@H](COc3ccc(F)cn3)CC[C@H]2C)c1            Ki            nM               1
 3  C[C@H]1[C@H](Nc2ncc(Cl)cn2)CCCN1C(=O)c1ccccc1-n1nccn1 (racemic)            Ki            nM              55
 4  C[C@@H]1[C@H]2C[C@@H](Oc3cnc4ccccc4n3)[C@H](C2)N1C(=O)c1cccc(F)c1-n1nccn1 (relative stereo)            Ki            nM               4
 5  C[C@H]1[C@H](Nc2ncc(F)cn2)CCCN1C(=O)c1ccccc1-n1nccn1 (racemic)            Ki            nM             870
 6  Cc1ccc(-n2nccn2)c(C(=O)N2C(C)C3CC(Oc4cnc(C(F)(F)F)cn4)C2C3)n1 (racemic)            Ki            nM              55
 7  Cc1ccc(-n2nccn2)c(C(=O)N2C(C)C3CC(Nc4ccc(C(F)(F)F)cn4)C2C3)n1 (racemic)            Ki            nM              11
 8  COc1ccc(C(=O)N2[C@H](C)[C@H]3C[C@@H](Oc4cnc(C(F)(F)F)cn4)[C@@H]2C3)c(-n2nccn2)c1 (relative stereo)            Ki            nM              15
 9  CC(C)CC1C2CC(Oc3ccc(C(F)(F)F)cn3)C(C2)N1C(=O)c1ccccc1-c1ncc(F)cn1 (racemic)            Ki            nM             100
10  C[C@H]1[C@H](Nc2cnc(C(F)(F)F)cn2)CCCN1C(=O)c1cc(F)ccc1-n1nccn1            Ki            nM              20
